# Test System: T1, mature human TGF-β1 (human, UniProt P01137 279-390)
# T1 construct: Bought protein (R&D Systems, Cat # 240-B/CF); also called TGF Beta 1; TGF-b1
# T1 sequence (P01137 279-390 limits assumed): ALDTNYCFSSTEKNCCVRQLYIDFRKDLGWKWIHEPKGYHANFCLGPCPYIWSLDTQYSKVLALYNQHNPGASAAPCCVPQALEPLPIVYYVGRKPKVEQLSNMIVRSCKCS
# Assay Summary: KinExA 3000, equilibrium in solution
# Method: A KinExA 3000 instrument (Sapidyne Inst. Inc.) measures binding kinetics. Briefly, antigen is covalently-coupled to azlactone beads and the binding of an invention free Fab to the beads is detected on the instrument. […] After incubation, free Fab in each equilibrated sample is determined on KinExA 3000 per manufacturer instructions. Kd values are determined using KinExA 3000 software. […] The koff is calculated using the formula K_{d=k}off/kₒₙ. […]
pKd: −log10 of the molar value.

Binder	pKd
Fab 12.4 (Fab, V domains shown, The mAb was made by linking the Fab to an IgG4 Fc region, so the mAb's chains are named; The heavy chain entry also holds the Fc, which is not in the Fab) VH: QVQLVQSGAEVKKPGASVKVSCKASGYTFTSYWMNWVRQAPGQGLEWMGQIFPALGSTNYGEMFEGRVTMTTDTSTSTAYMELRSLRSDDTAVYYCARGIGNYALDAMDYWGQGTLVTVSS VL: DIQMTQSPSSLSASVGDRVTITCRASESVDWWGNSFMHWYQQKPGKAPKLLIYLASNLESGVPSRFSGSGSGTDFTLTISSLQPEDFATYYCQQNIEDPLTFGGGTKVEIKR	11.81
